- Test system: IGROV1 ovarian
- test name: NCI tumour cell line growth inhibition, 48 h
Give TGI for every item shown.

// query Note down TGI recorded for CN(C)CC1CCn2c(c(C3=C(c4cn(C)c5ccccc45)C(=O)NC3=O)c3ccccc32)C1 (centres undefined)
// result 10.1 µM

// query Note down TGI recorded for CCCCCCCCCC(=O)OCC1OC(n2cc(F)c(=O)[nH]c2=O)C(N)C(OC(=O)CCCCCCCCC)C1O (centres undefined)
// result > 100 µM

// query Note down TGI recorded for `O=C(O)CC1(C(=O)O)CCCCC1`
// result > 100 µM

// query Note down TGI recorded for `Nc1ccc(Oc2ccc(C3(c4ccc(Oc5ccc(N)c(O)c5)cc4)C4CC5C6CC7CC5C3C(C7)C6C4)cc2)cc1O`
// result 4.68 µM

// query Note down TGI recorded for `Cc1ccc(C(=O)NC2CCCCC2)cc1-c1ccc(C(=O)NCC2CC2)cc1`
// result > 25 µM

// query Note down TGI recorded for N#CC1=C(N)Nc2nc3ccccc3n2C1c1ccccc1 (centres undefined)
// result > 100 µM

// query Note down TGI recorded for CC(C)(O)[C@H]1[C@@H]2OC(=O)[C@H]1[C@]1(O)C[C@H]3OC34C(=O)O[C@H]2[C@@]41C (some centres undefined) (tested in a mixture with another compound)
// result > 100 µM

// query Note down TGI recorded for `C/C(=C\COP(=O)(O)OP(=O)(O)O)CC/C=C(\C)CNc1ccc([N+](=O)[O-])cc1`
// result > 100 µM

// query Note down TGI recorded for CC1OC(O)CC(OC(=O)c2ccccc2)C1OC(=O)c1ccccc1 (centres undefined)
// result > 100 µM
